MEASURED ON: T1, monomeric cynomolgus monkey CSF1R ectodomain protein (cynomolgus monkey, UniProt P07333 20-517 (human entry))
T1 construct: also called monomeric cyno CSF1R; Cyno CSF1R
T1 chain: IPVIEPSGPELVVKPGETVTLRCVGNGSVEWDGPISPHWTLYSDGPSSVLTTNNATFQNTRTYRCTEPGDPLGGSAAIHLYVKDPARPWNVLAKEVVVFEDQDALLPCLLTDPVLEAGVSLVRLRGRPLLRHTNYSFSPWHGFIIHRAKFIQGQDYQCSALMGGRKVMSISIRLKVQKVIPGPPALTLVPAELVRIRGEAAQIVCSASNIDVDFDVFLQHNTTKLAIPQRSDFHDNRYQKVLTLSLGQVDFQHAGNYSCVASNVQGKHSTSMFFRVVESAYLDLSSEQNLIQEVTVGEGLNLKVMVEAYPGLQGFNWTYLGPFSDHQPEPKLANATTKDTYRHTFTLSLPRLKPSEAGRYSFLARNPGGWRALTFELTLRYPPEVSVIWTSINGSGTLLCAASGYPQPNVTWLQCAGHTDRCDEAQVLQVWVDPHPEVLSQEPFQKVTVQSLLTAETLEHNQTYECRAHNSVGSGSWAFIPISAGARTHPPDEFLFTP
EXPERIMENTAL DETAILS: SPR Biacore, IgG captured, monomeric CSF1R analyte
koff: recorded values

{"BINDER": "humanized anti-CSF1R antibody 0301 (hu0301) (antibody, human IgG4, V domains shown, also called mAb-1) VH: QVQLVQSGAEVKKPGSSVKVSCKASGYTFTDNYMIWVRQAPGQGLEWMGDINPYNGGTTFNQKFKGRVTITADKSTSTAYMELSSLRSEDTAVYYCARESPYFSNLYVMDYWGQGTLVTVSS VL: EIVLTQSPATLSLSPGERATLSCKASQSVDYDGDNYMNWYQQKPGQAPRLLIYAASNLESGIPARFSGSGSGTDFTLTISSLEPEDFAVYYCHLSNEDLSTFGGGTKVEIK", "RESULT UNITS": "s⁻¹", "koff": 0.00033}
{"BINDER": "29A03 (antibody, human IgG4, V domains shown, Library-derived clone, tested as human IgG4(S228P)/Ckappa IgG; framework residue limits counted on the grafts) VH: QVQLVQSGAEVKKPGSSVKVSCKASGYTFSSNYMIWVRQAPGQGLEWMGDINPYNGGATYNQKFQGRVTITADESTSTAYMELSSLRSEDTAVYYCAREPPYFSNLYVMDYWGQGTLVTVSS VL: EIVLTQSPATLSLSPGERATLSCRASQSVEYEGENYLNWYQQKPGQAPRLLIYAASNRATGIPARFSGSGSGTDFTLTISSLEPEDFAVYYCQLSNQDLLTFGGGTKVEIK", "RESULT UNITS": "s⁻¹", "koff": 0.00032}
{"BINDER": "30D02 (antibody, human IgG4, V domains shown, Library-derived clone, tested as human IgG4(S228P)/Ckappa IgG; framework residue limits counted on the grafts) VH: QVQLVQSGAEVKKPGSSVKVSCKASGYTFSSYYMIWVRQAPGQGLEWMGDINPYNGGTTYAQKFQGRVTITADESTSTAYMELSSLRSEDTAVYYCAREGPYFSNLYVMDYWGQGTLVTVSS VL: EIVLTQSPATLSLSPGERATLSCRASQSVEYQGENYLNWYQQKPGQAPRLLIYAASNRATGIPARFSGSGSGTDFTLTISSLEPEDFAVYYCQLSNQDLLTFGGGTKVEIK", "RESULT UNITS": "s⁻¹", "koff": 0.00032}
{"BINDER": "30E06 (antibody, human IgG4, V domains shown, Library-derived clone; tested as human IgG4(S228P) / human Ckappa IgG; also called 30E6; mAb-3) VH: QVQLVQSGAEVKKPGSSVKVSCKASGYTFTSYYMIWVRQAPGQGLEWMGDINPYNGGTTYAQKFQGRVTITADESTSTAYMELSSLRSEDTAVYYCAREGPYFSNLYVMDYWGQGTLVTVSS VL: EIVLTQSPATLSLSPGERATLSCRASQSVSYEGENYLAWYQQKPGQAPRLLIYAASNLATGIPARFSGSGSGTDFTLTISSLEPEDFAVYYCQLSNEDLLTFGGGTKVEIK", "RESULT UNITS": "s⁻¹", "koff": 0.00014}
{"BINDER": "murine anti-CSF1R antibody 0301 (mu0301), v-domains in human IgG4(S228P) format (antibody, V domains shown) VH: EVQLQQSGPELVRPGASVKMSCKASGYTFTDNYMIWVKQSHGKSLEWIGDINPYNGGTTFNQKFKGKATLTVEKSSSTAYMQLNSLTSEDSAVYYCARESPYFSNLYVMDYWGQGTSVTVSS VL: NIVLTQSPASLAVSLGQRATISCKASQSVDYDGDNYMNWYQQKPGQPPKLLIYAASNLESGIPARFSGSGSGTDFTLNIHPVEEEDAATYYCHLSNEDLSTFGGGTKLEIK", "RESULT UNITS": "s⁻¹", "koff": "7.4e-05"}

Origin of measurements: patent US20210301026A1
